tested on: FKBP12 (Homo sapiens, UniProt P62942)
Sequence (P62942 whole entry): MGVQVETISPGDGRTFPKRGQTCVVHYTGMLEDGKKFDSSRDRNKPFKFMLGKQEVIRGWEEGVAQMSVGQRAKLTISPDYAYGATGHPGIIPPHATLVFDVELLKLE
assay details: FKBP12 Binding Assay: inhibition of FKBP rotomase activity (cis-N-succinyl-Ala-Ala-Pro-Phe-p-nitroanilide / chymotrypsin), apparent Ki
Assay type: biochemical
run conditions: Table 1c, formula Ic, compound 0.1 nM-10 μM
pKi: −log10 of the molar value.
observable: pKi

INSERT INTO measurements (smiles_notation, observable, obs_value) VALUES
  ('CCOC(=O)CN(Cc1ccccc1)C(=O)C(=O)OC', 'pKi', '< 2.92');

###

tested on: FKBP12 (Homo sapiens, UniProt P62942)
assay details: FKBP12 Binding Assay: inhibition of FKBP rotomase activity (cis-N-succinyl-Ala-Ala-Pro-Phe-p-nitroanilide / chymotrypsin), apparent Ki
Format: biochemical
run conditions: Table 2, formula II', compound 0.1 nM-10 μM
observable: Ki

INSERT INTO assay_data (compound, obs_value) VALUES
  ('COc1cc(C(=O)C(=O)N2CCCC[C@H]2C(=O)OC(CCCc2ccccc2)CCCc2ccc(C(=O)Nc3ccccn3)cc2)cc(OC)c1OC (stereo partly drawn) [compound 60]', '2 nM'),
  ('COc1cc(C(=O)C(=O)N2CCCC[C@H]2C(=O)OC(CCCc2ccccc2)c2cccc(C(=O)N3CCOCC3)c2)cc(OC)c1OC (stereo partly drawn) [compound 56]', '6.1 nM'),
  ('COc1cc(C(=O)C(=O)N2CCCC[C@H]2C(=O)OC(C)c2cc(OCc3ccccc3)c(OCc3ccccc3)c(OCc3ccccc3)c2)cc(OC)c1OC (stereo partly drawn) [compound 90]', '2600 nM');

###

Entries and their measured Ki follow.
tested on: FKBP12 (Homo sapiens, UniProt P62942)
assay details: FKBP12 Binding Assay: inhibition of FKBP rotomase activity (cis-N-succinyl-Ala-Ala-Pro-Phe-p-nitroanilide / chymotrypsin), apparent Ki
Assay type: biochemical
run conditions: Table 2, formula II', compound 0.1 nM-10 μM
observable: Ki (nM)

INSERT INTO assay_data (compound, units_text, obs_value) VALUES
  ('COc1cc(C(=O)C(=O)N2CCCC[C@H]2C(=O)OC(C)c2ccc(OCc3ccncc3)c(OCc3ccncc3)c2OC(C)C)cc(OC)c1OC (stereo partly shown) [compound 85]', 'nM', 3.5),
  ('COc1cc(C(=O)C(=O)N2CCCC[C@H]2C(=O)OC(C)c2cc(OCc3ccncc3)cc(OCc3ccncc3)c2)cc(OC)c1OC (stereo partly shown) [compound 72]', 'nM', 12),
  ('C=CCOCC#CC(CCCc1ccccc1)OC(=O)[C@@H]1CCCCN1C(=O)C(=O)c1cc(OC)c(OC)c(OC)c1 (stereo partly shown) [compound 46]', 'nM', 5),
  ('COc1cc(C(=O)C(=O)N2CCCC[C@H]2C(=O)OC(CCCc2ccccc2)CCCc2cccc(C(=O)N3CCOCC3)c2)cc(OC)c1OC (stereo partly shown) [compound 52]', 'nM', 1.5),
  ('COc1cc(C(=O)C(=O)N2CCCC[C@H]2C(=O)OC(CCCc2ccccc2)CCCn2cnc3ccccc32)cc(OC)c1OC (stereo partly shown) [compound 15]', 'nM', 5),
  ('COc1cc(C(=O)C(=O)N2CCCC[C@H]2C(=O)OC(CCCc2ccccc2)CCCn2ccc3cccnc32)cc(OC)c1OC (stereo partly shown) [compound 23]', 'nM', 9),
  ('CC(C)C(=O)C(=O)N1CCCC[C@H]1C(=O)OC(CCCc1cccnc1)CCCc1cccnc1 [compound 109]', 'nM', 1500),
  ('COc1cc(C(=O)C(=O)N2CCCC[C@H]2C(=O)OC(CCCc2ccccc2)CCCn2cnc3cncnc32)cc(OC)c1OC (stereo partly shown) [compound 25]', 'nM', 2.2),
  ('COc1ccc(C(=O)C(=O)N2CCCC[C@H]2C(=O)OC(CCCc2ccccc2)c2ccccc2)cc1OCc1ccccc1 (stereo partly shown) [compound 103]', 'nM', 24000),
  ('COc1cc(C(=O)C(=O)N2CCCC[C@H]2C(=O)OC(CCCc2ccccc2)c2cccc(OCc3ccncc3)c2)cc(OC)c1OC (stereo partly shown) [compound 64]', 'nM', 1.4),
  ('COc1cc(C(=O)C(=O)N2CCCC[C@H]2C(=O)OC(CCCc2ccccc2)CCCc2ccc(C(=O)N3CCSCC3)cc2)cc(OC)c1OC (stereo partly shown) [compound 55]', 'nM', 2.4),
  ('COc1cc(C(=O)C(=O)N2CCCC[C@H]2C(=O)OC(CCCc2ccccc2)CCCc2ccc[n+]([O-])c2)cc(OC)c1OC (stereo partly shown) [compound 22]', 'nM', 7),
  ('COc1cc(C(=O)C(=O)N2CCCC[C@H]2C(=O)OC(C)c2cc(OCc3ccncc3)c(OCc3ccncc3)c(OCc3ccncc3)c2)cc(OC)c1OC (stereo partly shown) [compound 69]', 'nM', 36);
